Known protein stability index of a selection of variants
B1: CDKN1A (parent)
chain: GRKRRQTSMTDFYHSKRRLIFSKR

- Variants of: B1
- Protocol Summary: protein stability index of a GFP-peptide fusion (GPS, HEK-293T) (PSI 1-6); higher = more stable;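 further: lentivirally expressed fusions sorted by FACS into six bins by GFP to DsRed ratio, PSI derived from sequencing read proportions per bin multiplied by bin number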
- Test Settings: c terminus: a fixed tail appended
Readout: protein stability index

- T7S: 2.71
- R24G: 3.52
- G1K: 3.34
- I20D: 2.84
- T10Y: 2.53
- Q6W: 2.47
- T10W: 2.16
- G1V: 2.06
- R24K: 2.24
- T7D: 2.1
- Q6K: 2.55
- R24D: 3.29
- S15Y: 3.78
- F12S: 2.42
- Q6S: 2.25
- S15C: 2.1
- Y13S: 3.57
- K16V: 3.12
- K23F: 3.02
- G1R: 3.87
- R24S: 3.62
- D11L: 2.29
- R5Q: 2.87
- Y13H: 3.22
- K23S: 2.78
- D11T: 2.2
- R4W: 3.56
- R24V: 2
- R17I: 2.97
- M9L: 2.98
- I20S: 2.5
- L19K: 3.86
- R17M: 3.08
- F12K: 2.36
- D11H: 1.82
- D11S: 3.06
- M9D: 4.34
- T7L: 2.79
- T7M: 2.6
- S8M: 2.68
- R24N: 3.1
- H14W: 2.08
- R17T: 3.02
- D11W: 2.21
- D11M: 3.13
- D11Q: 2.89
